system-under-test: AMP-activated protein kinase, AMPK (Homo sapiens) (UniProt P54646+O43741+P54619+Q9UGJ0+Q9Y478+Q13131+Q9UGI9)
measurement-description: AMP-dependent Kinase enzyme assay. An in vitro enzyme assay that detects ADP turnover that is directly proportional to AMPK activity. This uses naive AMPK that is activated during the assay with MK-8722
Type: functional
Set-up: scale not given: direction of the effect not stated beside the values
assay-setup: 30 µM
Please provide measured Percent Effect for the entries that follow.
Express the result in % but write the number alone.

Prompt: Please report the recorded Percent Effect for CCS(=O)(=O)N1Cc2ccccc2CC1C(=O)OCc1cc(C)no1 (centres undefined) .
Completion: 5.87

Prompt: Again, but for Cc1ccc(CNC(C)(C)c2noc(C(C)(C)C)n2)o1
Completion: 0.8

Prompt: Please do the same for CC(C)c1nccc(CN(C)Cc2cccc(-n3cccn3)c2)n1 as well.
Completion: -3.37

Prompt: Also check Cc1cnc2c(C(=O)N3CCCC(OCc4ccccn4)C3)cnn2c1 (centres undefined)
Completion: 4.92

Prompt: Could you do the same for CC1CC(NS(=O)(=O)c2ccc(C(F)(F)F)nc2)C1 (centres undefined) , please?
Completion: 19.9

Prompt: Then Cc1nccc(CNC(=O)NC(c2ncc(C)s2)C2CC2)n1 (centres undefined) ?
Completion: 0.262

Prompt: Also, CCOC(=O)CC1(Nc2nc(C)nc3c2cnn3C)CCCCC1 please.
Completion: 14.9

Prompt: Quick one: CNC(=O)C(C)NC(=O)c1cc(COc2ccc(OC)cc2Cl)[nH]n1 (centres undefined)
Completion: -1.41

Prompt: Now give it for CN(C)CC(O)Cn1cc(NCc2ccc(Br)cc2)cn1 (centres undefined) too.
Completion: -39.9

Prompt: Next entry: COc1ccc(N2CCN(Cc3noc(CC(C)C)n3)C(C)C2=O)cc1 (centres undefined)
Completion: 0.845

Prompt: Same question, Cc1ncsc1C(=O)OCCN1CCCc2ccccc21 this time
Completion: 8.19

Prompt: Now the same for CC(C)CCc1noc(C[S+]([O-])CC(=O)NCc2ccccc2)n1 (centres undefined)
Completion: -1.86

Prompt: Queued: Cc1nn(C)c(C)c1-c1ccc(=O)n(C(C)C(=O)NC2CCCC2)n1 (centres undefined)
Completion: 9.03

Prompt: Then CNc1nc(C(=O)N2CCCC(COc3ccc(F)cc3)C2)cs1 (centres undefined) ?
Completion: 63.7

Prompt: How about this molecule: O=C1CCC(C(=O)N2CCC(Cn3cc(C4CCCC4)nn3)CC2)=NN1
Completion: -8.82

Prompt: Now consider CCc1n[nH]c(C(=O)NCCn2ccnc2C)c1C .
Completion: -2.67

Prompt: Request: COCC(C)NC(=O)N1CCN(S(C)(=O)=O)CC1 (centres undefined)
Completion: 11.4

Prompt: Now the molecule N#Cc1cccc(N2CCC(CO)(CCc3ccccc3)CC2)n1
Completion: 3.06

Prompt: Record: COCCN(CCOC)c1nc2c(s1)c(C)nn2C
Completion: 0.796

Prompt: Try COC(=O)CNC(=O)c1ccn(-c2ccc(Cl)c(Cl)c2)n1 next.
Completion: 13.8

Prompt: What would you report for Cc1nc(-n2nc(-c3cccs3)cc2N)[nH]c(=O)c1C ?
Completion: -14.4

Prompt: # iterate: O=C(CC1CCCC1)NCCS(=O)(=O)N1CCN(c2ccccn2)CC1
Completion: -2.11

Prompt: Follow-up entry: Cc1ccccc1C(=O)NC[C@@H]1CCN(C(=O)c2cccn2C)C[C@H]1O
Completion: -3.19

Prompt: Next molecule up: NC(=O)CC1CCCN(c2cncc(SCc3ccccc3)n2)C1 (centres undefined)
Completion: 25.3

Numbers sourced from ChEMBL document CHEMBL3988442.
